settings: buffer; pH 7.4; 200.0 µM
measurementKind: solubility kinetic (µg/mL)

compound	measurementKind	unitAbbreviation	reportedRelation	measuredResult
Cc1noc(C)c1C(=O)Nc1nc(-c2ccc(F)cc2)cs1	solubility kinetic	µg/mL	=	10.3
COc1ccc(C(=O)OCC(=O)c2ccc[nH]2)cc1	solubility kinetic	µg/mL	=	20.4
O=C(O)c1cccc(Cl)n1	solubility kinetic	µg/mL	>	23.6
CCOc1ccc(S(=O)(=O)N2CCN(C(=O)COc3ccc(Br)cc3)CC2)cc1	solubility kinetic	µg/mL	=	2.3
CCc1ccc(OCCNC(=O)c2ccco2)cc1	solubility kinetic	µg/mL	>	38.9
O=C(NCc1ccc2c(c1)OCO2)Nc1cccc(Cl)c1	solubility kinetic	µg/mL	=	1.3
CSCC(C)N1CCC(CCC(=O)NC2CC2)CC1 (configuration not stated)	solubility kinetic	µg/mL	>	42.7
CSc1ccc(NC(=O)NCc2cccnc2)cc1	solubility kinetic	µg/mL	>	41
S=C(NCCc1ccccc1)N1CCOCC1	solubility kinetic	µg/mL	>	37.6
COc1ccc(OCC(O)CNC(=O)Nc2ccccc2)cc1 (configuration not stated)	solubility kinetic	µg/mL	=	26.9
COc1ccc(Nc2nc3ccccc3n2C)cc1	solubility kinetic	µg/mL	=	36.5
O=C(NCc1ccco1)C1Cc2cc(Cl)ccc2O1 (configuration not stated)	solubility kinetic	µg/mL	>	41.7
Cc1ccn2c(C(=O)NN=C3CCCCCCC3)c(C)nc2c1	solubility kinetic	µg/mL	>	46.9
O=C(CCS(=O)(=O)Cc1ccccc1)NCCc1ccccc1	solubility kinetic	µg/mL	=	11.9
Cc1nc2ccsc2c(=O)n1-c1ccccc1Cl	solubility kinetic	µg/mL	>	41.5
COc1ccc(CNC(=S)Nc2ccccc2)cc1Cl	solubility kinetic	µg/mL	=	31.7
O=C(Nc1nccs1)OCc1ccccc1	solubility kinetic	µg/mL	=	12.8
